Reference source: patent US20200317779A1

# tested system: recombinant cynomolgus monkey CD3ε/δ heterodimer (cynomolgus monkey) (UniProt Q95LI5)
# Sequence (Q95LI5 22-117, stated change not applied, chain 1 of 2): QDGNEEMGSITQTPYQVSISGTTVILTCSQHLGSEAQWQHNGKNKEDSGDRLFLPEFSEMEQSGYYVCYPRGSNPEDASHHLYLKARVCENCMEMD
# Sequence (Q95LI8 22-105, stated change not applied, chain 2 of 2, further chain): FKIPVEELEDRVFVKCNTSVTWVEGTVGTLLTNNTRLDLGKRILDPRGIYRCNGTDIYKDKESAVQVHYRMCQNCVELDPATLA
# assay text: ELISA, coated CD3ε/δ
experimental readout: Absorbance (450 nm)
When you answer, write just the number.

# binder, Absorbance (450 nm)
rows = [
    ("B07 (antibody, human IgG1, lambda, L234A L235A, V domains shown) VH: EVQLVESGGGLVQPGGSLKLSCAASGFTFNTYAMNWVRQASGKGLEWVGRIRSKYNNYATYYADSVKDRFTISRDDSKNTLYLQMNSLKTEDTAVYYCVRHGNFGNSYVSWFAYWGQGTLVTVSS VL: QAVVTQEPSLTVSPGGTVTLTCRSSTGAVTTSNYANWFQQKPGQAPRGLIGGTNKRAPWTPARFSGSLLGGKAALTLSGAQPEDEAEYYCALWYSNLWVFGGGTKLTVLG", 2.45),
]

Query: Which Absorbance (450 nm) value belongs to G10 (antibody, human IgG1, lambda, L234A L235A, V domains shown) VH: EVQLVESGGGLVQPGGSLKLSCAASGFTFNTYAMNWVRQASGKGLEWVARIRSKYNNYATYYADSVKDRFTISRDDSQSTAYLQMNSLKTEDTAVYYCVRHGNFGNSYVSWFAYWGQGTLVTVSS VL: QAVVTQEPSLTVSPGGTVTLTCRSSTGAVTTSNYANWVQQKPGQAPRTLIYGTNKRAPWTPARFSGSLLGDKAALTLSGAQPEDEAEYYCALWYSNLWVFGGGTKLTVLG ?
Response: 0.079

Query: Which Absorbance (450 nm) value belongs to C09 (antibody, human IgG1, lambda, L234A L235A, V domains shown) VH: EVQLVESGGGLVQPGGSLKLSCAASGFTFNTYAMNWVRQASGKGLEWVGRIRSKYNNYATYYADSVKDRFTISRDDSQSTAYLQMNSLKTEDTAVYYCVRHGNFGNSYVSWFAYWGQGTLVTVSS VL: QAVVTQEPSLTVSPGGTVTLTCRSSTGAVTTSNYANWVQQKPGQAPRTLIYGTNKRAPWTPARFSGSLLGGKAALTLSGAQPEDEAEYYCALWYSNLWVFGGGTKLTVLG ?
Response: 0.075
